Taken from the DeepSol protein solubility set.

# testMethodNotes: soluble on expression in E. coli; label from the status in PepcDB or PDB records
metric: soluble on expression in E. coli

MRVLIVKTSSMGDVLHTLPALTDAQQAIPGIKFDWVVEEGFAQIPSWHAAVERVIPVAIRRWRKAWFSAPIKAERKAFREALQAKNYDAVIDAQGLVKSAALVTRLAHGVKHGMDWQTAREPLASLFYNRKHHIAKQQHAVERTRELFAKSLGYSKPQTQGDYAIAQHFLTNLPTDAGEYAVFLHATTRDDKHWPEEHWRELIGLLADSGIRIKLPWGAPHEEERAKRLAEGFAYVEVLPKMSLEGVARVLAGAKFVVSVDTGLSHLTAALDRPNITVYGPTDPGLIGGYGKNQMVCRAPGNELSQLTANAVKQFIEENAEKAAMI soluble
RVCPRILLECKKDSDCLAECVCLEHGYCG soluble
MEIKLEEILKKQPLYSGKAKSIYEIDDDKVLIEFRDDITAGNGAKHDVKQGKGYLNALISSKLFEALEENGVKTHYIKYIEPRYMIAKKVEIIPIEVIVRNIAAGSLCRRYPFEEGKELPFPIVQFDYKNDEYGDPMLNEDIAVALGLATREELNKIKEIALKVNEVLKKLFDEKGIILVDFKIEIGKDREGNLLVADEISPDTMRLWDKETRDVLDKDVFRKDLGDVIAKYRIVAERLGLL soluble

====

# testMethodNotes: soluble on expression in E. coli; label from the status in PepcDB or PDB records
metric: soluble on expression in E. coli

SLPNASRVVIVAGEESGDHHAAELVKQLKAVYPDLEISGIGGKHLRAAGVHLISDLTRYAVTGLTEIIPFLKIFRKAFQDIKQHLSTQKPDLLILVDYPAFNLRLAKYAKKKLGLKIIYYISPQIWAWKGKRIHLIKDCIDKMAVIFPFEKTIYENAGVPVSFVGHPLVKKIAAAKDKHSSRTSLGLPLNEPIIALLPGSRHSEIERHIPILVNTAKLLTLDSPKLRFVVPIAGTINPDKVKAYFSNQNLTVTFIQGQAIECMSAADFVIVASGTASLECALLEKPMCIIYKSSFLTYVAAMYFIKVKFLGLCNLLANKMMVPEFLQYDCNAIELSRYISNFHNNPNQPESMINQLAKLKESLSSSQADCSLFDLVVAELPEKNA not soluble
MEKIERLRSAFDEAGIDGILLTNEHSRRYMANFTGTAGVVLISKKRAQFITDFRYVEQASKQAVGYEIVQHAGLIIDEVAKQVKELGIQKLGFEQDTLTYSSYSAHKEAIDAEFIPTSGLVEKLRLIKTDSEIKILKEAAQIADAAFEHILSFIRPGVSEIEVSNELEFFMRKQGATSSSFDIIVASGLRSALPHGVASEKVIETGDFVTLDFGAYYKGYCSDITRTIAVGEPSDKLKEIYNIVLEAQLRGVNGIKAGLTGREADALTRDYITEKGYGEYFGHSTGHGIGLEIHEAPGLAFRSDTVLEPGMAVTVEPGIYIPGIGGVRIEDDIIVTSEGNEVITKSPKELIIL not soluble

====

# testMethodNotes: soluble on expression in E. coli; label from the status in PepcDB or PDB records
metric: soluble on expression in E. coli

# annotated cases, reported soluble on expression in E. coli shown
MGSDKIHHHHHHMSYDEAFKTLLISSNAKLNLELNHLVIKQDENIAKLFLKDINIIVLESLQISISSALFNAFAKYKIILLTCDETHSINGVFTPFLGHFQSAKIAKEQMNVSAQKKAILWQKIIKNKILNQAFILKKHNKIEQSNELINLAKKVSLNDSKNIEAVAAALYFKTLFGTSFSRDELCFENSALNYGYAIIRACIIRAVCISGLLPWLGIKHDNIYNSFALCDDLIEVFRASVDDCVLKLKGESEFLSKDDKRALIGNLQSKINFDGQNYPLNRAINHYVANFKNALLYEDELKIVKFDD not soluble
MGHHHHHHSHMAAGTLYTYPENWRAFKALIAAQYSGAQVRVLSAPPHFHFGQTNRTPEFLRKFPAGKVPAFEGDDGFCVFESNAIAYYVSNEELRGSTPEAAAQVVQWVSFADSDIVPPASTWVFPTLGIMHHNKQATENAKEEVRRILGLLDAYLKTRTFLVGERVTLADITVVCTLLWLYKQVLEPSFRQAFPNTNRWFLTCINQPQFRAVLGEVKLCEKMAQFDAKKFA not soluble
MTKIFAYAIREDEKPFLKEWEDAHKDVEVEYTDKLLTPETVALAKGADGVVVYQQLDYIAETLQALADNGITKMSLRNVGVDNIDMAKAKELGFQITNVPVYSPNAIAEHAAIQAARILRQDKAMDEKVARHDLRWAPTIGREVRDQVVGVVGTGHIGQVFMQIMEGFGAKVITYDIFRNPELEKKGYYVDSLDDLYKQADVISLHVPDVPANVHMINDESIAKMKQDVVIVNVSRGPLVDTDAVIRGLDSGKIFGYAMDVYEGEVGIFNEDWEGKEFPDARLADLIARPNVLVTPHTAFYTTHAVRNMVVKAFDNNLELVEGKEAETPVKVG soluble
MGSDKIHHHHHHLPALRLLAGPTAYEQLEANGLDQSLFTQLFAASGGPKWLAIAGLDKYLFSEFFQDREDPLYTMGASSGAWRLACMAQQDPLAAYERLEHFYIHQNYEKKPTREQVSAQVLQIVDGILGEQQGADIIANPLIRHHMVACRARHLNRIHAKFGLMMGLSMAAVSNVVNRKSLGWHFERVILSHKDAASPFRRLKDLPTKHVELTQDNIRHGLLATGSIPLLLDPVKDLQGSPKGHYYDGGITDYHFDMPLPAATGLSLYPHFYPYMSPGWFDKSLLWRKAKANYHNGLILAPSKQFIASLPFSKIPDREDFKNLDTKSRITYWQQSVQQSQVLADEFAEIVASGTIMDRIERL not soluble

Would you kindly share the measured soluble on expression in E. coli for `MGSQAAHMMSMDFEDFPVESAHRILTPRPTVMVTTVDEEGNINAAPFSFTMPVSIDPPVVAFASAPDHHTARNIESTHEFVINITPADIIERMWVTARDIPAGENELEAAGLAWTSSRRVKPPRIVEAPGHLECELLRMFEVGDHNLITGSVVSASVRSGAVKEGLLDVESVKPVLHVGGNKFVVGDHVRHVE` ?
soluble

# lookup: soluble on expression in E. coli of `MGSDKIHHHHHHMLSRTAENLFWLARYVERAEYLARTIEATLRVTALPSAYIGKTNEWDSALLTAGVGGNFYNFHDEANEQSVVDYLAFSSDNPSSIRNCIENARLNARSVRTALTGEMWDTLNSAWIELQEAWGKGTKTREDLTRFLRFVQEISLRFDGSAYRTMLRNDAYWFSRLGLHLERADNTARILDVKYHVLLPEEEHVGGPLDYYQWSSILRSVSALTAYHWVYRETLKPWLIADLLILNDTLPRSLASCYGNLTRNLDNIGVAYGRHGAAQRHARGVRNRLEHSKMDDIFQRGVHEFIQEFIADNARLGEVIAKQYLI`
not soluble

Dear colleague, I am looking for the recorded soluble on expression in E. coli of the following sequence: `MIRVLLADDHALFRQGLKSLLEAEGDFRVVGEAKDGWEAMRHALETKPDVILMDIQMPGLDGVQATQAILKEWPQAKVIMLTMYRQDAYVFEAVKAGARGYLLKDVDARELVDAIRRVHAGEVLLDAELAGHIIQDFRAKKEASQPLHAELSEREVQILRLVAQGYTNQEIAAELQLSEKTVRNRLSEIFQKLHLNNRTQAALYAIREGLARPEE`
soluble

Field request: soluble on expression in E. coli | item: `MLVLGDAHATTPGRRRALFAAYRAANESVAVQAGDLMYYDLPVQTYFIGGNNEDFDAIDALRNGRVESDDVANATLLNSTAATVDGRRVAGLTGNYAPTQFDKPRAVLRGDRRRHFVRSDVEAVMDLDDIDIFVAHEAPNGLPVEEDYDVGCQHIDDILDALQPSLCLVGHHHQHAECDYGDTHVVGLEPAWESYYVVDPDTLAVTRHDTPPALEHHHHHH`
not soluble

Data request, read-out soluble on expression in E. coli, for `MGSDKIHHHHHHMQTVQALLTAAKVDSAESPYDTIHIKVLYPAKNTDSNLEKNWGMLPVDAAQAPFPVVIFFNGFNCDAQKYQWLGIELAQTGLVVVMFNWVGESLPGLVSFTPGFEIEKRKREFYGTVPTASALPVILTKLAQLQSAGILSGTLDLEKIILGGHSEGGRVAMENANPNFFPQVVASFAYGSHTAGAVMLGYKPNTILPLPDTLPRLVIGGTHDGVIANSSAHFGLNTKDATTPVIRTFQEAIMGGRENSYLLLLRGANHFSIVDIVDSTLALPFKDIPATQPQEHFRLLLATIIHLFIDAHVRHQPEAFQKLEQLLIVTNPLIQSFERK`
not soluble

Can you share its soluble on expression in E. coli? I mean this sequence: `MINKTKEKLILIGMPGSGKTTIGKLLAKEYNCSFCDMDDYIIQISQKSIAELFSEGEDIFRNYETQACRELSISDKTVISTGGGVIKKDVNMEILKETGIIIFIDRPIQKILEDININSRPLLKNGKDRLYNLYNERINLYKKFSDIEILNDKSLNNAVYNITNAVSENFKFDFKEK`
not soluble

Entry under review: `MAHHHHHHMPSVATASTRAVLAYPTDDAKLLVELTPTDRVAGGGSCGGFSGGGPMTQSDLGVGGSRMLQSLLVTRNVRDHLLDLRFSEAALSAQVTLQGDTVRDLIADITAAQSTEVSIRIDPKVGVILRGEGGPYGEVEAHVHATSEALLSLSREQSASTRVYTHHLALACGARGGTGGGGSSGSSAGAGGTGGGRLRGTGASVRDGRLSNADYILMGLAASAAGAGSSGGGGGAAVGTLFGGFERLTLQINAQRQLSVLHTQRDHELKVFVTVVVMPLSSVCDML` . Reported soluble on expression in E. coli?
not soluble
